Recorded values, source patent US8399674B2.

readoutKind: melting point

Recorded melting point for COc1ccccc1CNc1ccc2cc(Nc3nc(C)no3)ccc2n1 [Example 86] , please?
175 °C

Likewise for COc1ccccc1CNc1ccc2cc(Nc3nc(C)cc(C)n3)ccc2n1 [Example 89] ?
157.5 °C

Likewise for COc1ccccc1CNc1ccc2cc(Nc3cccc(C(F)(F)F)n3)ccc2n1 [Example 101] ?
151 °C

Likewise for COc1ccccc1CNc1ccc2cc(Nc3nnn(C(C)(C)C)n3)ccc2n1 [Example 95] ?
156 °C

Likewise for COc1ccccc1CNc1ccc2cc(Nc3nnc(C4CC4)o3)ccc2n1 [Example 96] ?
199 °C

====

assaySystem: recombinant human 5-HT5A receptor (Homo sapiens)
Construct: membranes
Sequence (P47898 whole entry): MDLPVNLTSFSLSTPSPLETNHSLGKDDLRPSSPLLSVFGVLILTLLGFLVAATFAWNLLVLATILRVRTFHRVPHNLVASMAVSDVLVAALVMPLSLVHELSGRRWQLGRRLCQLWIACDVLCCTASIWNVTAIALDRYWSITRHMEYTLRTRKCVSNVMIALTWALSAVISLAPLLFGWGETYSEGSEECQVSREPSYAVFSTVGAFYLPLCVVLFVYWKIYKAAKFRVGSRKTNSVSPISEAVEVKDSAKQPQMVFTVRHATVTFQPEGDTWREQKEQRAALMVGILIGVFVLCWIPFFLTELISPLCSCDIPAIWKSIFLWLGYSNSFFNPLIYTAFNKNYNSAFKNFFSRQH
measurementNotes: [3H]LSD radioligand binding assay, membranes of HEK-EBNA cells transiently expressing the receptor
studyConditions: [3H]LSD approx. 1 nM, 120 min room temperature, Ki from IC50 by Cheng-Prussoff equation, read-out: Ki (affinity towards the human 5-HT5A receptor)
readoutKind: pKi
Give only the number. pKi is defined as minus log10 of concentration in molar units.

Recorded pKi for COc1ccccc1CNc1ccc2cc(CCc3cccnc3)ccc2n1 , please?
7.06

Likewise for COc1cc(F)ccc1CNc1cc(-c2ccccc2)c2cc(NCc3ccccc3)ccc2n1 ?
7.38

Likewise for COc1ccccc1CNc1cc(-c2cc(F)ccc2F)c2cc(NCc3cccnc3)ccc2n1 ?
7.66

Likewise for Cc1ccc(CNc2ccc3cc(NCc4cccnc4)ccc3n2)o1 ?
7.66

Likewise for COc1ccccc1CNc1ccc2cc(NCc3ccccc3)ccc2n1 ?
7.66

Likewise for COc1cccc(CNc2ccc3nc(NCc4ccccc4OC)cc(-c4ccccc4)c3c2)c1 ?
7.66

Likewise for Cc1ccc(CNc2cc(N)c3cc(NCc4ccccc4)ccc3n2)o1 ?
7.66

Likewise for COc1cccc(CNc2ccc3cc(NCc4cccnc4)ccc3n2)c1 ?
7.43

Likewise for CCn1nnc(Nc2ccc3nc(NCc4ccccc4OC)ccc3c2)n1 ?
7.36

====

Record form. Attribute: melting point. Fill in for each entry.
Please respond with the number in °C and leave the unit unwritten.

Recorded melting point for COc1ccccc1CNc1ccc2cc(Nc3nnc(C)o3)ccc2n1 , please?
183

Likewise for COc1ccccc1CNc1ccc2cc(Nc3nc4cc(C)ccc4o3)ccc2n1 ?
220

Likewise for COc1ccccc1CNc1ccc2cc(Nc3ncccn3)ccc2n1 ?
175

Likewise for COc1ccccc1CNc1ccc2cc(Nc3cc(C)on3)ccc2n1 ?
132

Likewise for COc1ccccc1CNc1ccc2cc(Nc3ncco3)ccc2n1 ?
205

Likewise for COc1ccccc1CNc1ccc2cc(Nc3ncc(C(F)(F)F)o3)ccc2n1 ?
166

====

readoutKind: melting point
A complete answer gives the number followed by the unit.

Recorded melting point for COc1ccccc1CNc1ccc2cc(Nc3nccc(C)n3)ccc2n1 [Example 90] , please?
125 °C

Likewise for COc1ccccc1CNc1ccc2cc(Nc3cccc(C)n3)ccc2n1 [Example 93] ?
134 °C

Likewise for COc1ccccc1CNc1ccc2cc(Nc3nc(C(F)(F)F)co3)ccc2n1 [Example 98] ?
144 °C

Likewise for CCn1nnc(Nc2ccc3nc(NCc4ccccc4OC)ccc3c2)n1 [Example 87] ?
190 °C

Likewise for COc1ccccc1CNc1ccc2cc(Nc3ncccc3C)ccc2n1 [Example 91] ?
163 °C

Likewise for COc1ccccc1CNC(=O)c1ccc2nc(NCc3ccccc3OC)ccc2c1 [Example 76] ?
217 °C

Likewise for COc1ccccc1CNc1ccc2cc(Nc3ccccn3)ccc2n1 [Example 92] ?
134 °C

Likewise for COc1ccccc1CNc1ccc2cc(Nc3nccc(C(F)(F)F)n3)ccc2n1 [Example 94] ?
114 °C

Likewise for COc1ccccc1CNc1ccc2cc(Nc3nnc(C(F)(F)F)o3)ccc2n1 [Example 97] ?
198 °C
